Ref: patent US20250154197A1

Test system: human subcutaneoous mature adipocytes
Assay: Lipolytic activity: glycerol release in human adipocytes (Lipolysis Assay kit)
Type: cell-based
Conditions: 25 μg/ml; human subcutaneous mature adipocytes
[ ]: non-standard residue; d: D form.
Endpoint label: Lipolysis Activity measured as Glycerol (μM) release in media (µM)
Numbers only, in µM.

Substance	Observed result
Ac-NDPEGLY-NH2 (Ac-[dN][dD][dP][dE]G[dL][dY]-NH2; SMILES CC(=O)N[C@H](CC(N)=O)C(=O)N[C@H](CC(=O)O)C(=O)N1CCC[C@@H]1C(=O)N[C@H](CCC(=O)O)C(=O)NCC(=O)N[C@H](CC(C)C)C(=O)N[C@H](Cc1ccc(O)cc1)C(N)=O) [GP3DM-27, N-term CH3CONH, C-term CONH2]	72.6

Now for another entry.
Query :: State the measured Lipolysis Activity measured as Glycerol (μM) release in media (human subcutaneoous mature adipocytes) of NDEGLY [GP3DM-24] (H-[dN][dD][dE]G[dL][dY]-OH; SMILES CC(C)C[C@@H](NC(=O)CNC(=O)[C@@H](CCC(=O)O)NC(=O)[C@@H](CC(=O)O)NC(=O)[C@H](N)CC(N)=O)C(=O)N[C@H](Cc1ccc(O)cc1)C(=O)O) [N-term NH2, C-term COOH]
Result :: 105.2
